// data source = patent US5977106A

# target-desc: 5-HT1A receptor (Rattus norvegicus)
# procedure-summary: biochemical
# Assay type: binding
# condition-notes: rat cerebral cortex; [^3 H]8-OH-DPAT 0.2 nM; 23° C., 30 minutes; mean of 3 to 5 experiments; read-out: pKi (Affinity for the 5-HT1A receptor) (converted)
Where a name gives a salt, the structure may show the parent alone.
quantity: Ki (nM)

(A) COc1ccc2cccc(N3CCN(CCCCn4ncc(=O)n(C)c4=O)CC3)c2c1
(B) Cn1c(=O)cnn(CCCCN2CCN(c3cccc(Cl)c3)CC2)c1=O
(C) Cc1nn(CCCCN2CCN(c3cccc(C(F)(F)F)c3)CC2)c(=O)n(C)c1=O [Compound 13, hydrochloride]
(D) COc1ccnc(N2CCN(CCCCn3ncc(=O)n(C)c3=O)CC2)n1
Going from lowest to highest recorded Ki, rank the entries listed above. Output the labels ranked as instructed.
A, B, D, C

====

# target-desc: 5-HT1A type serotoninergic receptors (Rattus norvegicus, UniProt P19327)
# Construct: carried out in male rats (Sprague Dawley); from tissue; host or cells: living male Sprague Dawley rats (whole animal)
# procedure-summary: 5-HT syndrome in rats (FBP, LLR, FPT)
# Format: in vivo
# condition-notes: ip, male Sprague Dawley rats, FPT, read-out: ED50 reciprocal fore-paw treading (FPT), 5-HT syndrome
# Protocol: The central activity of the compounds of the invention was evaluated for their capacity to cause the 5-HT syndrome, which is characterized by reciprocal fore-paw treading (FPT), lower-lip retraction (LLR) and flat body posture (FBP). The experiments for the evaluation of the 5-HT syndrome are carried out in male rats (Sprague Dawley) according to the method described by F.C COLPAERT et al (Drug Dev. Res., 26, 21-48; 1992).
quantity: ED50 (mg/kg)

Output ED50 of "Cl.Cn1c(=O)cnn(CCCCN2CCN(c3cccc(C(F)(F)F)c3)CC2)c1=O"
0.31

(1) Cn1c(=O)cnn(CCCCN2CCN(c3ncccn3)CC2)c1=O
(2) COc1ccc2cccc(N3CCN(CCCCn4ncc(=O)n(C)c4=O)CC3)c2c1
# min-compare on ED50 between 1 and 2 API: response body contains the label of the selected item.
2
(2: 0.02 mg/kg, 1: 0.31 mg/kg)

====

# target-desc: 5-HT1A receptor (Rattus norvegicus, UniProt P19327)
# Sequence (P19327 1-422): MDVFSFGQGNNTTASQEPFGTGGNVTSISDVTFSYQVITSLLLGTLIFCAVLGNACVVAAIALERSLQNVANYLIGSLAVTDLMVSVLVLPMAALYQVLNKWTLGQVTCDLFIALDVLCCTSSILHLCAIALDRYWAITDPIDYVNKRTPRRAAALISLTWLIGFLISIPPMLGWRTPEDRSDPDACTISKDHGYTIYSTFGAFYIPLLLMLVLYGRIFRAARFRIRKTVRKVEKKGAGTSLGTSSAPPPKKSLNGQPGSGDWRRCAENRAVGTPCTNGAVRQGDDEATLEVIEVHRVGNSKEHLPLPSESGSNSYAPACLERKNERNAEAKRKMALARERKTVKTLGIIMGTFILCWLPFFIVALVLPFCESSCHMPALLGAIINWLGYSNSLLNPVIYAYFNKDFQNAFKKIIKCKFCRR
# procedure-summary: biochemical
# Format: binding
# condition-notes: rat cerebral cortex; [^3 H]8-OH-DPAT 0.2 nM; 23° C., 30 minutes; mean of 3 to 5 experiments; read-out: pKi (Affinity for the 5-HT1A receptor) (converted)
Counter-ions that a name gives are not always drawn.
quantity: Ki (pM)

Below, each entry is followed by its recorded Ki result.
Retrieve Ki on 5-HT1A receptor (Rattus norvegicus, UniProt P19327); query O=c1cnn(CCCCN2CCN(c3cccc(C(F)(F)F)c3)CC2)c(=O)[nH]1 [Compound 1, hydrochloride]
550

Retrieve Ki on 5-HT1A receptor (Rattus norvegicus, UniProt P19327); query Cn1c(=O)cnn(CCCCN2CCN(c3ncccn3)CC2)c1=O [Compound 30, fumarate]
3310

Retrieve Ki on 5-HT1A receptor (Rattus norvegicus, UniProt P19327); query "Cc1ccnc(N2CCN(CCCCn3ncc(=O)n(C)c3=O)CC2)n1"
724

(1) Cc1cc(C)nc(N2CCN(CCCCn3ncc(=O)n(C)c3=O)CC2)n1
(2) Cn1c(=O)cnn(CCCCN2CCN(c3ncccn3)CC2)c1=O [Compound 9]
(3) Cn1c(=O)cnn(CCCCN2CCN(c3cccc(Cl)c3Cl)CC2)c1=O
Rank the 3 compounds: largest Ki first, smallest last. Output the labels ranked as instructed.
2, 1, 3
(2: 4570 pM, 1: 646 pM, 3: 316 pM)
